// LD50 at 168 h lookup, one value per entry
Assay: Toxicity test: lethal dose in mice (Litchfield-Wilcoxon)
Design: species or system male 4-weeks CD-1 (ICR) mice
Details: mouse, in vivo, ip, intraperitoneal, 7 days, read-out: LD50 and 95% Confidence Limit
Numeric answer plus unit only.

Here's what some known entries look like.
molecule	LD50 at 168 h
COc1ccc(CC2C(=O)NC(C)C(=O)N(C)C3Cc4ccc(cc4)Oc4cc(ccc4OC)CC(C(=O)NC(C)C(=O)NC(C)C(=O)N2C)N(C)C3=O)cc1 (stereo not drawn)	10 mg/kg
COc1ccc(CC2C(=O)NC(C)C(=O)N(C)C3Cc4ccc(cc4)Oc4cc(ccc4OC(C)=O)CC(C(=O)NC(C)C(=O)NC(C)C(=O)N2C)N(C)C3=O)cc1 (stereo not drawn)	18.4 mg/kg

Next molecule, please.
input: Name the reported LD50 at 168 h value associated with the molecule COc1ccc(CC2C(=O)NC(C)C(=O)N(C)C3Cc4ccc(cc4)Oc4cc(ccc4O)CC(C(=O)NC(C)C(=O)NC(C)C(=O)N2C)N(C)C3=O)cc1 (stereo not drawn)
output: 16 mg/kg

---

Test system: P-388 cells
Experiment: Antineoplastic action against implanted P-388 tumor, CDF1 mice, i.p.-i.p. (T/C %)
Format: in vivo
Conditions: Table 7, P388 (i.p.-i.p.), 2 mg/kg
Protocol: In this animal test, the antineoplastic action against the implanted tumor was examined, in lower animals in vivo, in repsect to the compounds according to the present invention, by using CDF1 mice. To the peritoneal cavity of each group of mice consisting of six CDF1 mice per group, 10^6 /0.1 ml of P-388 cells or 10^5 /0.1 ml of L-1210 cells were implanted. […]
// T/C (%) lookup, one value per entry

molecule	T/C (%)
CCCCCCOc1ccc2cc1Oc1ccc(cc1)CC1C(=O)N(C)C(C2)C(=O)NC(C)C(=O)NC(C)C(=O)N(C)C(Cc2ccc(OC)cc2)C(=O)NC(C)C(=O)N1C (stereo not shown)	150.0%

input: Form: Entry = COc1ccc(CC2C(=O)NC(C)C(=O)N(C)C3Cc4ccc(cc4)Oc4cc(ccc4OC)CC(C(=O)NC(C)C(=O)NC(C)C(=O)N2C)N(C)C3=O)cc1 (stereo not shown) | System = P-388 cells | T/C (%) = ____
output: 164.2%

input: Form: Entry = COc1ccc(CC2C(=O)NC(C)C(=O)N(C)C3Cc4ccc(cc4)Oc4cc(ccc4OC(C)=O)CC(C(=O)NC(C)C(=O)NC(C)C(=O)N2C)N(C)C3=O)cc1 (stereo not shown) | System = P-388 cells | T/C (%) = ____
output: 168.9%

input: Form: Entry = CCCCCC(=O)Oc1ccc2cc1Oc1ccc(cc1)CC1C(=O)N(C)C(C2)C(=O)NC(C)C(=O)NC(C)C(=O)N(C)C(Cc2ccc(OC)cc2)C(=O)NC(C)C(=O)N1C (stereo not shown) [Ex. 21, caproate of TPC-A] | System = P-388 cells | T/C (%) = ____
output: 152.2%

---

System: P-388 cells
Assay: Antineoplastic action against implanted P-388 tumor, CDF1 mice, i.p.-i.p. (T/C %)
Type: in vivo
Details: Mus musculus, P388, ip, read-out: T/C %, (Treatment/Control %)
// response vs control in vivo at 0.05 mg/kg lookup, one value per entry
Answer in %, number only, no unit symbol.

Here's what some known entries look like.
molecule	obs.value
COc1ccc(CC2C(=O)NC(C)C(=O)N(C)C3Cc4ccc(cc4)Oc4cc(ccc4OC(=O)C(C)C)CC(C(=O)NC(C)C(=O)NC(C)C(=O)N2C)N(C)C3=O)cc1 (centres unmarked)	124
CCCCC(=O)Oc1ccc2cc1Oc1ccc(cc1)CC1C(=O)N(C)C(C2)C(=O)NC(C)C(=O)NC(C)C(=O)N(C)C(Cc2ccc(OC)cc2)C(=O)NC(C)C(=O)N1C (centres unmarked)	118
COc1ccc(CC2C(=O)NC(C)C(=O)N(C)C3Cc4ccc(cc4)Oc4cc(ccc4OC(=O)c4ccccc4)CC(C(=O)NC(C)C(=O)NC(C)C(=O)N2C)N(C)C3=O)cc1 (centres unmarked)	128
CCCCCCCCOc1ccc2cc1Oc1ccc(cc1)CC1C(=O)N(C)C(C2)C(=O)NC(C)C(=O)NC(C)C(=O)N(C)C(Cc2ccc(OC)cc2)C(=O)NC(C)C(=O)N1C (centres unmarked)	136

Next molecule, please.
input: Name the reported response vs control in vivo at 0.05 mg/kg value associated with the molecule COc1ccc(CC2C(=O)NC(C)C(=O)N(C)C3Cc4ccc(cc4)Oc4cc(ccc4OC(=O)CCC(C)C)CC(C(=O)NC(C)C(=O)NC(C)C(=O)N2C)N(C)C3=O)cc1 (centres unmarked) [Ex. 40, 4-methyl valerate]
output: 112

---

Test system: P-388 cells
Assay: Antineoplastic action against implanted P-388 tumor, CDF1 mice, i.p.-i.p. (T/C %)
Format: in vivo
Settings: Mus musculus, P388, ip, read-out: T/C %, (Treatment/Control %)
endpoint.label: response vs control in vivo at 0.05 mg/kg (%)
Answer in %, number only, no unit symbol.

Here's what some known entries look like.
compound	obs.value
CCCCCOc1ccc2cc1Oc1ccc(cc1)CC1C(=O)N(C)C(C2)C(=O)NC(C)C(=O)NC(C)C(=O)N(C)C(Cc2ccc(OC)cc2)C(=O)NC(C)C(=O)N1C (centres unmarked)	122
CC=CC(=O)Oc1ccc2cc1Oc1ccc(cc1)CC1C(=O)N(C)C(C2)C(=O)NC(C)C(=O)NC(C)C(=O)N(C)C(Cc2ccc(OC)cc2)C(=O)NC(C)C(=O)N1C (centres unmarked)	124
COc1ccc(CC2C(=O)NC(C)C(=O)N(C)C3Cc4ccc(cc4)Oc4cc(ccc4OC4CCCCC4)CC(C(=O)NC(C)C(=O)NC(C)C(=O)N2C)N(C)C3=O)cc1 (centres unmarked)	126
COc1ccc(CC2C(=O)NC(C)C(=O)N(C)C3Cc4ccc(cc4)Oc4cc(ccc4OC4CCCCO4)CC(C(=O)NC(C)C(=O)NC(C)C(=O)N2C)N(C)C3=O)cc1 (centres unmarked) [Ex. 20, tetrahydropyranylether of TPC-A]	138

Next compound, please.
input: Name the reported response vs control in vivo at 0.05 mg/kg value associated with the compound CCOc1ccc2cc1Oc1ccc(cc1)CC1C(=O)N(C)C(C2)C(=O)NC(C)C(=O)NC(C)C(=O)N(C)C(Cc2ccc(OC)cc2)C(=O)NC(C)C(=O)N1C (centres unmarked)
output: 137

---

Test system: P-388 cells
Test: Antineoplastic action against implanted P-388 tumor, CDF1 mice, i.p.-i.p. (T/C %)
Assay type: in vivo
Details: Mus musculus, P388, ip, read-out: T/C %, (Treatment/Control %)
// response vs control in vivo at 0.05 mg/kg lookup, one value per entry
Answer in %, number only, no unit symbol.

Here's what some known entries look like.
molecule	assayed.system	obs.value
CCCCCCCCCC(=O)Oc1ccc2cc1Oc1ccc(cc1)CC1C(=O)N(C)C(C2)C(=O)NC(C)C(=O)NC(C)C(=O)N(C)C(Cc2ccc(OC)cc2)C(=O)NC(C)C(=O)N1C (centres unmarked)	P-388 cells	122
CCCCCC(=O)Oc1ccc2cc1Oc1ccc(cc1)CC1C(=O)N(C)C(C2)C(=O)NC(C)C(=O)NC(C)C(=O)N(C)C(Cc2ccc(OC)cc2)C(=O)NC(C)C(=O)N1C (centres unmarked) [Ex. 21, caproate of TPC-A]	P-388 cells	134
CCCCCCC(=O)Oc1ccc2cc1Oc1ccc(cc1)CC1C(=O)N(C)C(C2)C(=O)NC(C)C(=O)NC(C)C(=O)N(C)C(Cc2ccc(OC)cc2)C(=O)NC(C)C(=O)N1C (centres unmarked)	P-388 cells	114
CCCC(=O)Oc1ccc2cc1Oc1ccc(cc1)CC1C(=O)N(C)C(C2)C(=O)NC(C)C(=O)NC(C)C(=O)N(C)C(Cc2ccc(OC)cc2)C(=O)NC(C)C(=O)N1C (centres unmarked)	P-388 cells	125

Next molecule, please.
input: Name the reported response vs control in vivo at 0.05 mg/kg value associated with the molecule COc1ccc(CC2C(=O)NC(C)C(=O)N(C)C3Cc4ccc(cc4)Oc4cc(ccc4OC(C)C)CC(C(=O)NC(C)C(=O)NC(C)C(=O)N2C)N(C)C3=O)cc1 (centres unmarked)
output: 142

---

Experiment: Toxicity test: lethal dose in mice (Litchfield-Wilcoxon)
Set-up: species or system male 4-weeks CD-1 (ICR) mice
Details: mouse, in vivo, intravenous, 7 days, read-out: LD50 and 95% Confidence Limit
endpoint.label: LD50 at 168 h (mg/kg)
Answer in mg/kg, number only, no unit symbol.

Here's what some known entries look like.
compound	endpoint.label	unit.string	obs.value
COc1ccc(CC2C(=O)NC(C)C(=O)N(C)C3Cc4ccc(cc4)Oc4cc(ccc4OC)CC(C(=O)NC(C)C(=O)NC(C)C(=O)N2C)N(C)C3=O)cc1 (stereo not drawn) [Methylether of TPC-A, methylether of the compound TPC-A]	LD50 at 168 h	mg/kg	16.5
COc1ccc(CC2C(=O)NC(C)C(=O)N(C)C3Cc4ccc(cc4)Oc4cc(ccc4OC(C)=O)CC(C(=O)NC(C)C(=O)NC(C)C(=O)N2C)N(C)C3=O)cc1 (stereo not drawn) [Ex. 22, Acetic acid ester of TPC-A]	LD50 at 168 h	mg/kg	20

Next compound, please.
input: Name the reported LD50 at 168 h value associated with the compound COc1ccc(CC2C(=O)NC(C)C(=O)N(C)C3Cc4ccc(cc4)Oc4cc(ccc4O)CC(C(=O)NC(C)C(=O)NC(C)C(=O)N2C)N(C)C3=O)cc1 (stereo not drawn) [TPC-A]
output: 34
